Target: CFTR in F508del/F508del primary CF hBE cells (Homo sapiens, UniProt P13569, DEL508-508)
Construct: Primary cystic fibrosis human bronchial epithelial (CF hBE) cells were expanded and cultured; endogenous in cells
Sequence (P13569 with tags, fused parts or gaps DEL508-508): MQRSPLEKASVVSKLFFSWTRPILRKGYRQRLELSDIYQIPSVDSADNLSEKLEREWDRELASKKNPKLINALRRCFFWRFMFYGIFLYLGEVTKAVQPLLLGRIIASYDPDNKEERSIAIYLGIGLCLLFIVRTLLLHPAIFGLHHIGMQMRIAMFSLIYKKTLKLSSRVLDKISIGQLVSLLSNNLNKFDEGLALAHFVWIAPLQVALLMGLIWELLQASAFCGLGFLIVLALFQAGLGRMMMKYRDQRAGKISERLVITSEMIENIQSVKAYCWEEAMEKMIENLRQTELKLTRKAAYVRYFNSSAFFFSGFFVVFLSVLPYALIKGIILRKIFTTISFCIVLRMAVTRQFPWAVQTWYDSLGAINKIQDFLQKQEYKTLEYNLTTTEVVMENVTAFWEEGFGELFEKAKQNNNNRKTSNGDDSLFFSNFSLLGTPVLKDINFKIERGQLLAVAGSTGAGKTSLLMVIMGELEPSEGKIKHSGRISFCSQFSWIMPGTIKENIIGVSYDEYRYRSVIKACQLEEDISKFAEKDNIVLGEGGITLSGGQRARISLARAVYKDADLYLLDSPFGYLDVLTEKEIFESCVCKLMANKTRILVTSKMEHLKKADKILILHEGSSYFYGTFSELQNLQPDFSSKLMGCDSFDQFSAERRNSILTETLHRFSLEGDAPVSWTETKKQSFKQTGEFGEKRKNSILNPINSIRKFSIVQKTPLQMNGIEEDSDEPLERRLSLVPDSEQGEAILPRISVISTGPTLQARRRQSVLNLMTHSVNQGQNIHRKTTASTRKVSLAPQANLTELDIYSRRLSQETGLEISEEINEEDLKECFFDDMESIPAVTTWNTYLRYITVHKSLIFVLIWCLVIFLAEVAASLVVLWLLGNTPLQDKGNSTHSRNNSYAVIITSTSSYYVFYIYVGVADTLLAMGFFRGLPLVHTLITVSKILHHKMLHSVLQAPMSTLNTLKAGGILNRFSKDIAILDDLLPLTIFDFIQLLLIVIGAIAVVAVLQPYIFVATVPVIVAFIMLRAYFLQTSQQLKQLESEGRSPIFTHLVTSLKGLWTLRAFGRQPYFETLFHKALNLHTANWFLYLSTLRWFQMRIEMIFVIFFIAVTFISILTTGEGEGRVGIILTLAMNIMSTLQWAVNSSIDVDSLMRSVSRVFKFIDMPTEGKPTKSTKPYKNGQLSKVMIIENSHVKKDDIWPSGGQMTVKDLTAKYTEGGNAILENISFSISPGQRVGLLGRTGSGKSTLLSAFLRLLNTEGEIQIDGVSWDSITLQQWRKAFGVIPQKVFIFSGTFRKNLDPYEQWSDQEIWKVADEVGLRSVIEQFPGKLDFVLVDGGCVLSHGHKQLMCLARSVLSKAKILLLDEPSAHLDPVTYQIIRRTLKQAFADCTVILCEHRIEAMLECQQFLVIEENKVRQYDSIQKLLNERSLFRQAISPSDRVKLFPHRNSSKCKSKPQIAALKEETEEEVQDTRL
Experiment: Ussing chamber electrophysiology assay of CFTR potentiation in F508del/F508del CF bronchial epithelial cells (27° C.)
VALUE_KIND: pEC50
To interpret pEC50, take it as minus log10 of a concentration measured in moles per litre.

Input line: Please report the measured pEC50 for Nc1ncnc2c1c(-c1cnc(C(F)(F)F)nc1)cn2Cc1cnn(-c2ccccc2F)c1 [Example 57]
Output line: 7.18

Input line: Supply reported pEC50 belonging to this molecule: CCC(c1cn(-c2cccc(F)c2F)nn1)n1cc(-c2cnc(C(F)(F)F)nc2)c2c(N)ncnc21 (single isomer, unassigned) [Example 188]
Output line: 6.61

Input line: Return pEC50 for the following molecule: Cc1ccc(-c2cn(C(C)c3cnc(-c4ccccc4F)[nH]3)c3ncnc(N)c23)cc1F (centres unmarked) [Example 68]
Output line: 7.58

Input line: Identify measured pEC50 associated with Cc1cccc(-n2cc(C(C)n3cc(-c4ccc(Cl)cc4)c4c(N)ncnc43)nn2)c1 (centres unmarked) [Example 208]
Output line: 7.26

Input line: Provide only the value of recorded pEC50 for CC(c1cn(-c2ccccc2F)nn1)n1cc(-c2cccc(C(F)(F)F)c2)c2c(N)ncnc21 (centres unmarked) [Example 97]
Output line: 6.79

Input line: For the molecule CCC(c1cn(-c2cc(F)ccc2F)nn1)n1cc(-c2cnc(C(F)(F)F)nc2)c2c(N)ncnc21 (single isomer, unassigned) [Example 186] , report pEC50.
Output line: 6.53

Input line: Give the measured pEC50 for Cc1ccccc1-c1cc(C(C)n2cc(-c3ccc(Cl)cc3)c3c(N)ncnc32)on1 (centres unmarked) [Example 266]
Output line: 6.60

Input line: Note pEC50 for the molecule shown: CCC(c1cn(-c2cc(F)cc(F)c2)nn1)n1cc(-c2cnc(C(F)(F)F)nc2)c2c(N)ncnc21 (single isomer, unassigned; enantiomer 1) [Example 311]
Output line: 6.95

Input line: Using the record for Nc1ncnc2c1c(-c1cccnc1OC(F)F)cn2Cc1cn(-c2ccccc2F)nn1 [Example 196] , state its measured pEC50.
Output line: 7.31

Input line: Determine from records and report pEC50 for CCC(c1cnn(-c2ccc(F)cc2F)c1)n1c(C#N)c(-c2cnc(C(F)(F)F)nc2)c2c(N)ncnc21 (single isomer, unassigned) [Example 20]
Output line: 8.26

Input line: Note pEC50 for the molecule shown: Nc1ncnc2c1c(-c1ccc3c(c1)CCO3)cn2Cc1cn(-c2ccccc2F)nn1 [Example 74]
Output line: 7.23

Input line: Provide one value: measured pEC50 of CCC(c1cn(-c2ccccc2)nn1)n1cc(-c2cncnc2OC)c2c(N)ncnc21 (single isomer, unassigned; enantiomer 2) [Example 128]
Output line: 7.37

Input line: In one line, give reported pEC50 of the entry CCC(c1cnn(-c2ccccc2F)c1)n1cc(-c2cnc(C(F)(F)F)nc2)c2c(N)ncnc21 (single isomer, unassigned; enantiomer 2) [Example 176] .
Output line: 6.97

Input line: Write down pEC50 measured for item COc1cccc(-c2cc(C(C)n3cc(-c4ccc(Cl)cc4)c4c(N)ncnc43)on2)c1 (centres unmarked) [Example 261]
Output line: 6.63

---

Give measured pEC50 for each item. Keep answers brief.
Biological target: CFTR in F508del/F508del primary CF hBE cells (Homo sapiens, UniProt P13569, DEL508-508)
Construct: Primary cystic fibrosis human bronchial epithelial (CF hBE) cells were expanded and cultured; endogenous in cells
Experiment: Ussing chamber electrophysiology assay of CFTR potentiation in F508del/F508del CF bronchial epithelial cells (27° C.)
On this scale, pEC50 is minus log10 of a concentration expressed in M (mol/L).

Input line: State, in one line, measured pEC50 of CCC(c1cn(-c2cc(C(F)(F)F)ccn2)nn1)n1cc(-c2cncnc2OC)c2c(N)ncnc21 (stereo not drawn)
Output line: 6.69

Input line: State its pEC50: CC(c1cn(-c2ccccc2F)nn1)n1cc(-c2ccc(Cl)cc2)c2c(N)ncnc21 (single isomer, unassigned) [Example 111]
Output line: 6.87

Input line: Identify measured pEC50 associated with COc1ccccc1-c1cc(C(C)n2cc(-c3ccc(Cl)cc3)c3c(N)ncnc32)on1 (stereo not drawn)
Output line: 6.96

Input line: Assign pEC50 to the following record: CC(c1cn(-c2ccccc2F)nn1)n1cc(-c2ccc(OC3CC3)nc2)c2c(N)ncnc21 (single isomer, unassigned; enantiomer 2) [Example 120]
Output line: 8.26

Input line: Write down pEC50 measured for item COc1nc(C(F)(F)F)ccc1-c1cn(Cc2cn(-c3ccccc3F)nn2)c2ncnc(N)c12
Output line: 7.97

Input line: Specify measured pEC50 for CCC(c1cn(-c2cc(F)cc(F)c2)nn1)n1cc(-c2cnc(C(F)(F)F)nc2)c2c(N)ncnc21 (single isomer, unassigned; enantiomer 2) [Example 312] .
Output line: 6.55

---

Target: CFTR in F508del/F508del primary CF hBE cells (Homo sapiens, UniProt P13569, DEL508-508)
Construct: Primary cystic fibrosis human bronchial epithelial (CF hBE) cells were expanded and cultured; endogenous in cells
Test: Ussing chamber electrophysiology assay of CFTR potentiation in F508del/F508del CF bronchial epithelial cells (27° C.)
Excerpt: • SHELXTL, Version 5.1, Bruker AXS, 1997. • PLATON, A. L. Spek, J. Appl. Cryst. 2003, 36, 7-13. • MERCURY, C. F. Macrae, P. R. Edington, P. McCabe, E. Pidcock, G. P. Shields, R. Taylor, M. Towler and J. van de Streek, J. Appl. Cryst. 39, 453-457, 2006. • OLEX2, Dolomanov, O. V.; Bourhis, L. J.; Gildea, R. J.; Howard, J. A. K.; Puschmann, H., (2009). J. Appl. Cryst., 42, 339-341. • R. W. W. Hooft et al. J. Appl. Cryst. (2008). 41. 96-103. • H. D. Flack, Acta Cryst. 1983, A39, 867-881. […]
Assign EC50 to each entry below.
Write the answer as a number in nM, unit excluded.

Input line: State the measured EC50 (CFTR in F508del/F508del primary CF hBE cells (Homo sapiens, UniProt P13569, DEL508-508)) of CC(C)(c1cn(-c2ccccc2F)nn1)n1cc(-c2ccc(Cl)cc2)c2c(N)ncnc21 [Example 256]
Output line: 45

Input line: Specify the recorded EC50 for Nc1ncnc2c1c(C1CC1)cn2C1(c2cn(-c3ccccc3F)nn2)CC1 [Example 295] , system: CFTR in F508del/F508del primary CF hBE cells (Homo sapiens, UniProt P13569, DEL508-508).
Output line: 389

Input line: Lab note: record EC50 of CC(c1cn(-c2ccccc2F)nn1)n1cc(-c2ccc(OC3CC3)cc2)c2c(N)ncnc21 (stereo not shown) [Example 212] tested on CFTR in F508del/F508del primary CF hBE cells (Homo sapiens, UniProt P13569, DEL508-508).
Output line: 12.2

Input line: Name the recorded EC50 of Nc1ncnc2c1c(-c1ccc(Cl)cc1)cn2Cc1nc(-c2ccccc2)c[nH]1 [Example 282] , assay system CFTR in F508del/F508del primary CF hBE cells (Homo sapiens, UniProt P13569, DEL508-508).
Output line: 216

---

Biological target: recombinant F508del V470 CFTR in Fischer rat thyroid (FRT) cells (Homo sapiens, UniProt P13569, DEL508-508)
Assay: FRT ion flux assay of F508del CFTR potentiation
Settings: FRT cells expressing F508del V470 CFTR, forskolin 20 uM, 27° C. pre-incubation
VALUE_KIND: pEC50
// pEC50: -log10(molar conc.)

Input line: Using the record for CCC(c1cn(-c2cccc(F)c2F)nn1)n1cc(-c2cnc(C(F)(F)F)nc2)c2c(N)ncnc21 (single isomer, unassigned) [Example 187] , state its measured pEC50.
Output line: 7.88

Input line: Recall and state the measured pEC50 for CC(c1cnc(-c2ccccc2F)[nH]1)n1cc(-c2cnc3[nH]ccc3c2)c2c(N)ncnc21 (stereo not drawn) [Example 62] .
Output line: 5.65

Input line: Specify pEC50 for CCC(c1cn(-c2ccc(F)c(F)c2)nn1)n1cc(-c2cc(F)cnc2OC)c2c(N)ncnc21 (single isomer, unassigned; enantiomer 1) [Example 155] and stop.
Output line: 7.41

Input line: Tell us which pEC50 value is on record for CC(c1cnc(-c2ccccc2F)[nH]1)n1cc(-c2ccc(C(F)(F)F)nc2)c2c(N)ncnc21 (stereo not drawn) [Example 64]
Output line: 7.10

Input line: For CCC(c1cn(-c2ccccc2F)nn1)n1cc(-c2ccc(Cl)cc2)c2c(N)ncnc21 (single isomer, unassigned; enantiomer 2) [Example 132] , write its pEC50.
Output line: 7.42

Input line: Entry CC(c1cn(-c2ncccc2F)nn1)n1cc(-c2ccc(OC3CC3)cc2)c2c(N)ncnc21 (stereo not drawn) [Example 214] needs its pEC50 filled in; supply it.
Output line: 7.04
